# tgt: Full-length human PRMT1 isoform 1 (Homo sapiens)
# Construct: GST-tagged PRMT1
# Sequence (Q99873 with tags, fused parts or gaps): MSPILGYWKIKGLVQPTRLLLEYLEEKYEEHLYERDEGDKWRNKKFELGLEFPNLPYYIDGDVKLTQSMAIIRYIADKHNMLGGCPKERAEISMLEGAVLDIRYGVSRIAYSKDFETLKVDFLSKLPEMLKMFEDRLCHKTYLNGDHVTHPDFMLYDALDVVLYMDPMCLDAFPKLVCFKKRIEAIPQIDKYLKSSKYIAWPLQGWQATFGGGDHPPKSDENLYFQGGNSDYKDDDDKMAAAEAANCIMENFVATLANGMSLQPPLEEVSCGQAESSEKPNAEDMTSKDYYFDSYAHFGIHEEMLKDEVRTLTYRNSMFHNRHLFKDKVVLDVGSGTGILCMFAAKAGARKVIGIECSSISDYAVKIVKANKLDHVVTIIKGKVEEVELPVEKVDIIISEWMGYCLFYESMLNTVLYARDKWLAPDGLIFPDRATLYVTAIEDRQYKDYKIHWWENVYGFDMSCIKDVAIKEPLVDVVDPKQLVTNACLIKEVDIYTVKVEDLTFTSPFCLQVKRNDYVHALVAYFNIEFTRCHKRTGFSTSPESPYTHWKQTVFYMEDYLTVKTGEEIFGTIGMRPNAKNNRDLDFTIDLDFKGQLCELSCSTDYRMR
# protocolText: PRMT1 biochemical assay (3H-SAM Flashplate, peptide substrate)
For each of the compounds below, state its IC50.

Lookup: Can you share its IC50? I mean this compound: "CNCCN(C)Cc1c[nH]nc1-c1ccc(Oc2cccc(C(=O)NC)c2)cc1"
Found: < 100 nM

Lookup: Can you share its IC50? I mean this compound: "CN(CCN)Cc1cn(CCO)nc1-c1ccc(F)cc1"
Found: 1010 to 3000 nM

Lookup: Can you share its IC50? I mean this compound: "CNCCN(C)Cc1c[nH]nc1-c1ccccc1C(F)(F)F"
Found: 1010 to 3000 nM

Lookup: Can you share its IC50? I mean this compound: "CNCCN(C)Cc1n[nH]cc1-c1ccc(Oc2ccccc2F)cc1"
Found: < 100 nM

Lookup: Can you share its IC50? I mean this compound: "CN(CCN)Cc1c(-c2ccc(C#N)cc2)ncn1C"
Found: 1010 to 3000 nM

###

pIC50: −log10 of the molar value.
Entries with reported pIC50 on Full-length human PRMT6 (Homo sapiens, UniProt Q96LA8)
Sequence (Q96LA8 with tags, fused parts or gaps): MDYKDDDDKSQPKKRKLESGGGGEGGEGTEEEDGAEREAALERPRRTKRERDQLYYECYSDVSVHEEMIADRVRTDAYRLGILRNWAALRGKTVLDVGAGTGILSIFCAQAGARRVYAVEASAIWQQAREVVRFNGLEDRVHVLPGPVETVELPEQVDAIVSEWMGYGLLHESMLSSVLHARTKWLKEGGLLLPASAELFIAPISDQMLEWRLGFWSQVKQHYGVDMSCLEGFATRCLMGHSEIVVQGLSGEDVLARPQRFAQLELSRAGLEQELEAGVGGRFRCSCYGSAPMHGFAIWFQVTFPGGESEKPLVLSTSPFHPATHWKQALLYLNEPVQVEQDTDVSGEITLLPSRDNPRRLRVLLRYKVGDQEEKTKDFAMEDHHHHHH

Lookup: Can you share its pIC50? I mean this molecule: CC(O)c1ccc(-c2n[nH]cc2CN(C)CCN)cc1 (stereo not drawn) [Compound 115]
Found: > 7.00

Lookup: Can you share its pIC50? I mean this molecule: CNCCN(C)Cc1n[nH]cc1-c1cc(Cl)c(OC(C)C)c(Cl)c1 [Compound 273]
Found: > 7.00

Lookup: Can you share its pIC50? I mean this molecule: CN(CCN)Cc1cnn(CC(O)CO)c1-c1ccc(F)cc1 (stereo not drawn) [Compound 113]
Found: 6.00 to 7.00

Lookup: Can you share its pIC50? I mean this molecule: CN(CCNC1CC1)Cc1c[nH]nc1-c1ccc(C#N)cc1 [Compound 183]
Found: 6.00 to 7.00

Lookup: Can you share its pIC50? I mean this molecule: CNC(=O)c1cc(-c2n[nH]cc2CN(C)CCN)ccc1Oc1ccccc1 [Compound 227]
Found: > 7.00

Lookup: Can you share its pIC50? I mean this molecule: CNCCN(C)Cc1c[nH]nc1-c1cc(Cl)c(OCC2CC2)c(Cl)c1 [Compound 282]
Found: > 7.00

Lookup: Can you share its pIC50? I mean this molecule: CNCCN(C)Cc1c[nH]nc1-c1ccc2ccccc2c1 [Compound 58]
Found: > 7.00

Lookup: Can you share its pIC50? I mean this molecule: CN(CCN)Cc1c[nH]nc1-c1ccc(OCCO)cc1 [Compound 194]
Found: > 7.00

Lookup: Can you share its pIC50? I mean this molecule: COc1ccc(-c2n[nH]cc2CN(C)CCN)c(OC)c1 [Compound 87]
Found: 6.00 to 7.00

###

# tgt: Full-length human PRMT8 (Homo sapiens, UniProt Q9NR22)
# Construct: Full-length human PRMT8 (NM_019854.4) isoform 1 transcript clone
# Sequence (Q9NR22 whole entry, canonical isoform): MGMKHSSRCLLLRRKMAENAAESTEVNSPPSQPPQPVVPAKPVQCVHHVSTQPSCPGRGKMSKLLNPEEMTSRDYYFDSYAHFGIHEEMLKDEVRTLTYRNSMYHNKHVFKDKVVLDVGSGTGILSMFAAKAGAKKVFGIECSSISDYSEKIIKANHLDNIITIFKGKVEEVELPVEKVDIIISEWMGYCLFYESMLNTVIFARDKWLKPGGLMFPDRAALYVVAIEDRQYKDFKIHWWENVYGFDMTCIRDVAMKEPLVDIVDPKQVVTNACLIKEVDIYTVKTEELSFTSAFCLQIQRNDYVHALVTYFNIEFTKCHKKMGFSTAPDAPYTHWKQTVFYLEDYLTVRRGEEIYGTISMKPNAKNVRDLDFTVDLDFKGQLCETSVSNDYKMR
# protocolText: PRMT8 biochemical assay (3H-SAM Flashplate, peptide substrate)
# Text: General Materials. […] General Procedure for PRMT8 Enzyme Assays on Peptide Substrates. […] The plates were then read in a PerkinElmer TopCount plate reader to measure the quantity of ^3H-labeled peptide bound to the Flashplate surface, measured as disintegrations per minute (dpm) or alternatively, referred to as counts per minute (cpm). […]
recordedEndpoint: IC50

Lookup: Any idea what IC50 came out for CN(CCN)Cc1n[nH]cc1-c1ccc(F)cc1 [Compound 69] on Full-length human PRMT8 (Homo sapiens, UniProt Q9NR22)?
Found: 1010 to 3000 nM

Lookup: Any idea what IC50 came out for CCNCCN(C)Cc1c[nH]nc1-c1ccc(F)cc1 [Compound 60] on Full-length human PRMT8 (Homo sapiens, UniProt Q9NR22)?
Found: 1010 to 3000 nM

Lookup: Any idea what IC50 came out for CNCCN(C)Cc1c[nH]nc1-c1ccccc1O [Compound 35] on Full-length human PRMT8 (Homo sapiens, UniProt Q9NR22)?
Found: > 10000 nM

Lookup: Any idea what IC50 came out for CNCCN(C)Cc1c[nH]nc1-c1cccc(NC(C)=O)c1 [Compound 42] on Full-length human PRMT8 (Homo sapiens, UniProt Q9NR22)?
Found: 1010 to 3000 nM

Lookup: Any idea what IC50 came out for Cc1cc(C#N)ccc1-c1n[nH]cc1CN(C)CCN [Compound 110] on Full-length human PRMT8 (Homo sapiens, UniProt Q9NR22)?
Found: 101 to 1000 nM

Lookup: Any idea what IC50 came out for CN(CCN)Cc1c[nH]nc1-c1ccc(Oc2ccccc2)c(C(=O)N(C)C)c1 [Compound 226] on Full-length human PRMT8 (Homo sapiens, UniProt Q9NR22)?
Found: 3010 to 10000 nM

Lookup: Any idea what IC50 came out for CN(CCN)Cc1c[nH]nc1-c1ccc(Cl)cc1 [Compound 95] on Full-length human PRMT8 (Homo sapiens, UniProt Q9NR22)?
Found: 101 to 1000 nM

Lookup: Any idea what IC50 came out for CCNC(=O)c1ccc(-c2n[nH]cc2CN(C)CCN)cc1 [Compound 136] on Full-length human PRMT8 (Homo sapiens, UniProt Q9NR22)?
Found: 101 to 1000 nM

Lookup: Any idea what IC50 came out for CNCCN(C)Cc1cnn(C2CC2)c1-c1ccc(F)cc1 [Compound 14] on Full-length human PRMT8 (Homo sapiens, UniProt Q9NR22)?
Found: 1010 to 3000 nM

Lookup: Any idea what IC50 came out for CN(CCN)Cc1c[nH]nc1-c1ccc(OCCCO)cc1 [Compound 195] on Full-length human PRMT8 (Homo sapiens, UniProt Q9NR22)?
Found: 101 to 1000 nM

###

For each of the molecules below, state its IC50.
# tgt: Full-length human PRMT8 (Homo sapiens, UniProt Q9NR22)
# Construct: Full-length human PRMT8 (NM_019854.4) isoform 1 transcript clone
# protocolText: PRMT8 biochemical assay (3H-SAM Flashplate, peptide substrate)

Lookup: Any idea what IC50 came out for "COc1ccc(-c2n[nH]cc2CN(C)CCN)c(C)c1" on Full-length human PRMT8 (Homo sapiens, UniProt Q9NR22)?
Found: 101 to 1000 nM

Lookup: Any idea what IC50 came out for "CNCCN(C)Cc1n[nH]cc1-c1ccc(OC(C)C)c(Cl)c1" on Full-length human PRMT8 (Homo sapiens, UniProt Q9NR22)?
Found: < 100 nM

Lookup: Any idea what IC50 came out for "CNCCN(C)Cc1cn[nH]c1-c1ccc(C#N)cc1" on Full-length human PRMT8 (Homo sapiens, UniProt Q9NR22)?
Found: < 100 nM

Lookup: Any idea what IC50 came out for "CCOc1ccc(-c2n[nH]cc2CN(C)CCN)cc1" on Full-length human PRMT8 (Homo sapiens, UniProt Q9NR22)?
Found: 101 to 1000 nM

Lookup: Any idea what IC50 came out for "Cc1cc(F)ccc1-c1n[nH]cc1CN(C)CCN" on Full-length human PRMT8 (Homo sapiens, UniProt Q9NR22)?
Found: 101 to 1000 nM

Lookup: Any idea what IC50 came out for "CCN(CCNC)Cc1c[nH]nc1-c1ccc(F)cc1" on Full-length human PRMT8 (Homo sapiens, UniProt Q9NR22)?
Found: 101 to 1000 nM

Lookup: Any idea what IC50 came out for "Cc1ccc(-c2n[nH]cc2CN(C)CCN)cc1Cl" on Full-length human PRMT8 (Homo sapiens, UniProt Q9NR22)?
Found: 101 to 1000 nM

Lookup: Any idea what IC50 came out for "CC(C)Oc1cc(-c2n[nH]cc2CN(C)CCN)ccc1F" on Full-length human PRMT8 (Homo sapiens, UniProt Q9NR22)?
Found: 1010 to 3000 nM

Lookup: Any idea what IC50 came out for "CN(CCN)Cc1c[nH]nc1-c1cc(Cl)cc(Cl)c1" on Full-length human PRMT8 (Homo sapiens, UniProt Q9NR22)?
Found: 101 to 1000 nM

Lookup: Any idea what IC50 came out for "CCC(=O)N1CCN(c2ccc(-c3n[nH]cc3CN(C)CCN)cc2)CC1" on Full-length human PRMT8 (Homo sapiens, UniProt Q9NR22)?
Found: 1010 to 3000 nM

Lookup: Any idea what IC50 came out for "CN(CCN)Cc1c[nH]nc1-c1ccc(Cl)cc1Cl" on Full-length human PRMT8 (Homo sapiens, UniProt Q9NR22)?
Found: 101 to 1000 nM

Lookup: Any idea what IC50 came out for "CN(CCN)Cc1c[nH]nc1-c1ccc(C(F)(F)F)c(F)c1" on Full-length human PRMT8 (Homo sapiens, UniProt Q9NR22)?
Found: 101 to 1000 nM

Lookup: Any idea what IC50 came out for "CNCCN(C)Cc1n[nH]cc1-c1ccc(Oc2ccccc2)cc1" on Full-length human PRMT8 (Homo sapiens, UniProt Q9NR22)?
Found: < 100 nM

Lookup: Any idea what IC50 came out for "CNCCN(C)Cc1c[nH]nc1-c1ccc(C(F)(F)F)cc1" on Full-length human PRMT8 (Homo sapiens, UniProt Q9NR22)?
Found: 101 to 1000 nM

Lookup: Any idea what IC50 came out for "CN(CCNC1CC1)Cc1c[nH]nc1-c1ccc(C#N)cc1" on Full-length human PRMT8 (Homo sapiens, UniProt Q9NR22)?
Found: 3010 to 10000 nM

Lookup: Any idea what IC50 came out for "CCN(CCN)Cc1c[nH]nc1-c1ccc(F)cc1" on Full-length human PRMT8 (Homo sapiens, UniProt Q9NR22)?
Found: 101 to 1000 nM

Lookup: Any idea what IC50 came out for "CN(CCN)Cc1nn(C)cc1-c1ccc(C#N)cc1" on Full-length human PRMT8 (Homo sapiens, UniProt Q9NR22)?
Found: 101 to 1000 nM

Lookup: Any idea what IC50 came out for "CC(=O)c1cccc(-c2n[nH]cc2CN(C)CCN)c1" on Full-length human PRMT8 (Homo sapiens, UniProt Q9NR22)?
Found: 101 to 1000 nM

Lookup: Any idea what IC50 came out for "COc1cc(Cl)cc(-c2n[nH]cc2CN(C)CCN)c1" on Full-length human PRMT8 (Homo sapiens, UniProt Q9NR22)?
Found: 101 to 1000 nM

Lookup: Any idea what IC50 came out for "CNCCN(C)Cc1c[nH]nc1-c1ccc(N)cc1" on Full-length human PRMT8 (Homo sapiens, UniProt Q9NR22)?
Found: 1010 to 3000 nM

Lookup: Any idea what IC50 came out for "CNCCN(C)Cc1c[nH]nc1-c1ccc(C)cc1C" on Full-length human PRMT8 (Homo sapiens, UniProt Q9NR22)?
Found: 1010 to 3000 nM
